MEASURE: melting point

Per the records, this molecule ( Cc1ccc(NC(=O)CSc2nc3ccccc3cc2-c2nc3ccccc3c(=O)[nH]2)cc1 ) has melting point equal to 203 to 205 °C

According to the records, this molecule CCc1ccc(NC(=O)CSc2nc3ccccc3cc2-c2nc3ccccc3c(=O)[nH]2)cc1 displays melting point of 208 to 210 °C

Entry under test: O=C(CSc1nc2ccccc2cc1-c1nc2ccccc2c(=O)[nH]1)Nc1ccccc1F . Its melting point was 209 to 211 °C

Sample COc1ccc(NC(=O)CSc2nc3ccccc3cc2-c2nc3ccccc3c(=O)[nH]2)cc1 ; melting point observed: 203 to 205 °C

Data point: O=C(CSc1nc2ccccc2cc1-c1nc2ccccc2c(=O)[nH]1)Nc1ccc(Cl)cc1 ; melting point = 209 to 211 °C

# molecule O=C(CSc1nc2ccccc2cc1-c1nc2ccccc2c(=O)[nH]1)NCc1ccccc1 ; its melting point = 201 to 203 °C

Entry under test: O=C(CSc1nc2ccccc2cc1-c1nc2ccccc2c(=O)[nH]1)Nc1ccc([N+](=O)[O-])cc1 . Its melting point was 217 to 219 °C

The reported melting point of the molecule O=C(CSc1nc2ccccc2cc1-c1nc2ccccc2c(=O)[nH]1)Nc1ccc(F)cc1 was 206 to 208 °C

The molecule identified as O=C(CSc1nc2ccccc2cc1-c1nc2ccccc2c(=O)[nH]1)Nc1ccccc1 registered its melting point at 200 to 202 °C

---

- TESTED_TARGET: α-glucosidase (Saccharomyces cerevisiae, UniProt P53341)
- Construct: purchased Sigma-Aldrich
- Sequence (P53341 whole entry): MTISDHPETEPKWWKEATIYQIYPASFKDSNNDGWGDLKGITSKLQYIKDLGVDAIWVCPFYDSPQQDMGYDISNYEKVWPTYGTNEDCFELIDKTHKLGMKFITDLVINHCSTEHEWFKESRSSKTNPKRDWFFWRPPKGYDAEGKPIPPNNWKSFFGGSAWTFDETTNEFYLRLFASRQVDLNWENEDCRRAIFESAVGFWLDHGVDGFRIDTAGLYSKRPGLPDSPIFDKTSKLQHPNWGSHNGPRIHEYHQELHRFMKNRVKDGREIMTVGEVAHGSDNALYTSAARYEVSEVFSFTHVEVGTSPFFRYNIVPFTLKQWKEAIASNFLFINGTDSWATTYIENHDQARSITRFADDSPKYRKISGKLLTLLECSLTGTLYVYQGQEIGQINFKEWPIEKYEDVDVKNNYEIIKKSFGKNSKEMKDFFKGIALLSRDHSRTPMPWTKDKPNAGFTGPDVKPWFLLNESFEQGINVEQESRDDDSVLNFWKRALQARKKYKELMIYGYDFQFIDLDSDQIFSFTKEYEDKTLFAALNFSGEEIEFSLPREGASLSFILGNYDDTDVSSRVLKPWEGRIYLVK
- ASSAY_TEXT: biochemical
- Type: biochemical
MEASURE: IC50 (µM)
The reply should contain only the number, in µM.

Looking up COc1ccc(NC(=O)CSc2nc3ccccc3cc2-c2nc3ccccc3c(=O)[nH]2)cc1 , I see its IC50 listed as 37.7

---

- TESTED_TARGET: α-glucosidase (Saccharomyces cerevisiae, UniProt P53341)
MEASURE: Ki (µM)
Provide the reading as a plain figure in µM.

α-glucosidase (Saccharomyces cerevisiae, UniProt P53341) assay, compound O=C(CSc1nc2ccccc2cc1-c1nc2ccccc2c(=O)[nH]1)Nc1ccc(O)cc1 , recorded Ki = 7

---

Exercise: state measured IC50 for each of the molecules provided.
- TESTED_TARGET: α-glucosidase (Saccharomyces cerevisiae)
- Construct: purchased Sigma-Aldrich
- ASSAY_TEXT: biochemical
- Format: biochemical
- SETUP_CONDITIONS: yeast α-glucosidase, p-nitrophenyl glucopyranoside substrate, pH 6.8, 37 °C; mean ± SD; read-out: IC50 against α-glucosidase

IC50 measured on Cc1ccc(NC(=O)CSc2nc3ccccc3cc2-c2nc3ccccc3c(=O)[nH]2)cc1 = > 750 µM

Kindly note the recorded IC50 for O=C(CSc1nc2ccccc2cc1-c1nc2ccccc2c(=O)[nH]1)Nc1ccccc1F , which is > 750 µM

So for O=C(CSc1nc2ccccc2cc1-c1nc2ccccc2c(=O)[nH]1)Nc1cccc(Cl)c1 , the logged IC50 turned out to be 53.4 µM
